# assayed-target: T1, CD3 expressed on cell-surface of primary human T cells (human, UniProt P07766 23-207; P04234 22-171)
# T1 construct: also called cell-surface CD3; human CD3
# T1 sequence (P07766 23-207 limits assumed, chain 1 of 2): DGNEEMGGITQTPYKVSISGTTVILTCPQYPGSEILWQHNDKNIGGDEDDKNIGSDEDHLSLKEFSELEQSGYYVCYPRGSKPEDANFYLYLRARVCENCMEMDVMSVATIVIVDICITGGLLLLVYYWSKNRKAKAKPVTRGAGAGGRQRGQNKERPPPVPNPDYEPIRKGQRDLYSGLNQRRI
# T1 sequence (P04234 22-171 limits assumed, chain 2 of 2): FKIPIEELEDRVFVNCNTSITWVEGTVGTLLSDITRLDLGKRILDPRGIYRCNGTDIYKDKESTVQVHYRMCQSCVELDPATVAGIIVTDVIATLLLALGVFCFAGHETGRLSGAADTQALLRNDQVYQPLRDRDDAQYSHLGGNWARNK
# test-name: flow cytometry competition vs murine SP34-AF488 on human T cells, average
Could you mark each record t if its IC50 falls strictly under 0.3 µg/mL, and f if it equals or exceeds it?

Solved cases below.
huSP34.13.8 Fab-HF (Fab, V domains shown) VH: EVQLVESGGGLVQPGGSLRLSCAASGFTFSTYAMNWVRQAPGKGLEWVGRIRSKYNNYATYYAASVKGRFTISRDDSKNTLYLQMNSLRTEDTAVYYCVRHGNFGHSYVSWFAYWGQGTLVTVSS VL: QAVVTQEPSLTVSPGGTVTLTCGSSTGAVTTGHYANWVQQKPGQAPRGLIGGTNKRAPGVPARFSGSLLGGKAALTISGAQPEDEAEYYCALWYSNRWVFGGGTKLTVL :: t
huSP34.12.10 Fab-HF (Fab, V domains shown) VH: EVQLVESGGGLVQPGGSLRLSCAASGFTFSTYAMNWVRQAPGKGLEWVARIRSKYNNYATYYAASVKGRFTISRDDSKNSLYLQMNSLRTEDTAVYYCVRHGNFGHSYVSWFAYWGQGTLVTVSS VL: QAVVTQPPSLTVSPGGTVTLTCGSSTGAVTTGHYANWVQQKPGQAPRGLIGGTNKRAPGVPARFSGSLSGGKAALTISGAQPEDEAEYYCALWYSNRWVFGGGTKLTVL :: f
huSP34.11.8 Fab-HF (Fab, V domains shown) VH: EVQLVESGGGLVQPGGSLRLSCAASGFTFSTYAMNWVRQAPGKGLEWVGRIRSKYNNYATYYAASVKGRFTISRDDSKNSLYLQMNSLRTEDTAVYYCVRHGNFGHSYVSWFAYWGQGTLVTVSS VL: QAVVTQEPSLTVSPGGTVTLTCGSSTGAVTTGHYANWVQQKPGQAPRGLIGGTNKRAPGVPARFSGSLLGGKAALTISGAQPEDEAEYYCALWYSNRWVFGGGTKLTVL :: t
huSP34.3.8 Fab-HF (Fab, V domains shown) VH: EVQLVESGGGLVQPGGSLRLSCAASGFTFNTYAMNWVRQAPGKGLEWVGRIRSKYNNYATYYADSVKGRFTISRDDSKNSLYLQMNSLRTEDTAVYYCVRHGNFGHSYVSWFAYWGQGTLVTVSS VL: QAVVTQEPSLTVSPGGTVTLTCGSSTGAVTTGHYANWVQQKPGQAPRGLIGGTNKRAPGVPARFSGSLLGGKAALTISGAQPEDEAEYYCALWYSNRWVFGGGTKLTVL :: t

Now for a further binder.
Given huSP34.11.7 Fab-HF (Fab, V domains shown) VH: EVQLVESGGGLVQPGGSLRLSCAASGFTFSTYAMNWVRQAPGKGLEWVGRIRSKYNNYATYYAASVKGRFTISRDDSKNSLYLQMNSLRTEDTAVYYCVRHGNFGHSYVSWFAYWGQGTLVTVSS VL: QAVVTQEPSLTVSPGGTVTLTCRSSTGAVTTGHYANWVQQKPGQAPRGLIGGTNKRAPGVPARFSGSLLGGKAALTISGAQPEDEAEYYCALWYSNLWVFGGGTKLTVL , is recorded IC50 strictly lower than 0.3 µg/mL?
f
